Origin of measurements: ChEMBL document CHEMBL1147177

For each entry below, report its inhibition value.
experimentalSystem: UniProtKB O42713
Sequence (O42713 whole entry): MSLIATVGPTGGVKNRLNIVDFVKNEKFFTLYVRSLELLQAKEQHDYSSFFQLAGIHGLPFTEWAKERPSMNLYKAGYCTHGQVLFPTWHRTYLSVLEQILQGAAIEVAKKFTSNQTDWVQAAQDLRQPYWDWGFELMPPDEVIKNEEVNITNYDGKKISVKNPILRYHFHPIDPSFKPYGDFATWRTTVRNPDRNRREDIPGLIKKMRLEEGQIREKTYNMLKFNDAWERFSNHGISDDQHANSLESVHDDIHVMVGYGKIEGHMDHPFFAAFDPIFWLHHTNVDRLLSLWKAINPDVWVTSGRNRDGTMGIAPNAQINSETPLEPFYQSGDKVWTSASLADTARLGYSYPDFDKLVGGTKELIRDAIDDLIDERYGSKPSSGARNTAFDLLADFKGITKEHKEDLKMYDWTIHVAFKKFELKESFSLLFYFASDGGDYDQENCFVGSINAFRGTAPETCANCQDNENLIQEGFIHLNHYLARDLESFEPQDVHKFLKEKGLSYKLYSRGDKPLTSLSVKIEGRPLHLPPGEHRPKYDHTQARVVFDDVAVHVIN
assayName: Inhibition of diphenolase activity of mushroom tyrosinase at 0.053 mM
Respond numerically; units are % and should not be typed.

## Input Provide measured inhibition value, entry: COc1cc(-c2oc3cc(O)cc(O)c3c(=O)c2O[C@@H]2O[C@H](COC(=O)/C=C/c3ccc(O)cc3)[C@@H](O)[C@H](O)[C@H]2O)ccc1O
## Output 21.1

## Input Supply recorded inhibition for COc1cc(-c2oc3cc(O)cc(O)c3c(=O)c2O[C@@H]2O[C@H](CO[C@@H]3O[C@@H](C)[C@H](O)[C@@H](O)[C@H]3O)[C@@H](O)[C@H](O)[C@H]2O)ccc1O here.
## Output 13.1

## Input Name the recorded inhibition of the molecule listed here: C[C@@H]1O[C@@H](O[C@@H]2[C@@H](O)[C@H](OCCc3ccc(O)c(O)c3)O[C@H](CO)[C@H]2OC(=O)/C=C/c2ccc(O)c(O)c2)[C@H](O)[C@H](O)[C@H]1O
## Output 25.8

## Input Kindly indicate its recorded inhibition. Item: COc1ccc(-c2cc(=O)c3c(O)c(O)c(OC)cc3o2)cc1
## Output 2.78
